experiment: reversal of MRP1-mediated doxorubicin resistance, pilot screen, H69AR cells, doxorubicin co-treatment (AID 601); conditions: H69AR cells + 2 uM doxorubicin, CellTiter-Glo, 72 h; measured here: viability with 2 uM doxorubicin; at 10 µM; stronger effect = lower value
// reported viability per item
Form entry: value (%) — number only.

Can you share its viability? I mean this compound: `COc1ccccc1NC(=O)CSc1nnc(CC(=O)Nc2ccccc2)n1C`
93.1

----------
assay: reversal of MRP1-mediated doxorubicin resistance, pilot screen, H69AR cells, doxorubicin co-treatment (AID 601); settings: H69AR cells + 2 uM doxorubicin, CellTiter-Glo, 72 h; measured here: viability with 2 uM doxorubicin; at 10 µM; stronger effect = lower value
Class membership depends on viability alone; the intervals are I = under 80%, II = from 80% up to 90%, III = 90% and over

STRUCTURE_STRING	CLASS_ASSIGNMENT
COc1ccc2[nH]c(=O)c(CNC3CCCCC3)cc2c1	II
COC(=O)c1[nH]c2ccc(F)cc2c1NS(=O)(=O)c1ccc(OC)cc1OC	III
Cc1cc(OCC(=O)N2CCOCC2)cc2oc(=O)c3ccccc3c12	II
CCOc1ccccc1-n1c(SCC(=O)NCc2ccco2)nnc1-c1ccncc1	I
CC(=O)Nc1ccc(S(=O)(=O)N2CCC(c3nc4ccccc4[nH]3)CC2)cc1	II
Cc1oc2cc(O)ccc2c(=O)c1-c1cnn(-c2ccccc2)c1	III
CCOc1ccccc1NC(=O)CCN1CCN(S(=O)(=O)c2ccc(Br)cc2)CC1	I

Here's the next entry for you.
Place this compound in its band: `CCSc1nnc(NC(=O)c2csc(C)c2)s1`
III

----------
assay: HUVEC growth inhibition – cell-based, human, primary screen (AID 575); details: HUVEC proliferation, CellTiter-Glo luminescence, 72 h; at 10 µM; stronger effect = lower value;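 also: 100% = median of untreated cell wells with 0.1% DMSO on each plate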
Reported values of viability for individual entries
Express the result in % but write the number alone.

Below, 6 molecules whose answers are already recorded.
MOLECULE	viability (%)
Cc1cc(C)c(Cn2c(=O)n(CCCC(=O)NCc3ccco3)c(=O)c3ccccc32)c(C)c1	89.4
COc1cc(NC2=CC(=O)CC(C)(C)C2)cc(OC)c1	85.5
COc1ccc2nc(C)cc(N3CCOCC3)c2c1	101
O=C(NCCCN1CCOCC1)C1CC(=O)N(CCc2ccccc2)C1 (stereo unspecified)	84.1
C=CCn1c(COc2ccccc2F)nnc1SCC(=O)N1CC(=O)Nc2ccccc21	109
CS(=O)(=O)c1ccc2nc(NC(=O)CCC(=O)c3cccs3)sc2c1	87.5

// returns reported viability for input `Cc1c(NS(=O)(=O)c2ccc3c(c2)c(=O)n(C)c(=O)n3C)c(=O)n(-c2ccccc2)n1C`
77.8

I would be grateful if you could share the reported viability for `Cn1c(=N)n(CC(=O)O)c2ccccc21` .
91.5

Quick check: viability of Cc1ccc(CCNC(=O)CC2Oc3ccc(C)cc3NC2=O)cc1 (stereo unspecified) ?
74.5

viability for `CCn1ncc(Cl)c1C(=O)Nc1ccncc1` ?
97.5

State the recorded viability for this entry: `CCC(=O)Nc1ccc(F)c(Cl)c1`
97.9

----------
assay: reversal of MRP1-mediated doxorubicin resistance, pilot screen, H69AR cells, doxorubicin co-treatment (AID 601); details: H69AR cells + 2 uM doxorubicin, CellTiter-Glo, 72 h; at 10 µM; stronger effect = higher value
QUANTITY_KIND: differential viability (reversal) (%)
Give the quantity in %, number only.

Guide cases for differential viability (reversal), answers given:
MOLECULE	QUANTITY_KIND	VALUE_UNITS	OBS_VALUE
Cc1ccc(N2CCN(C(=S)c3ccc(N(C)C)cc3)CC2)cc1	differential viability (reversal)	%	-9.83
CCN1CCN(c2nc3c(C)cccn3c(=O)c2/C=C(\C#N)S(=O)(=O)c2ccccc2)CC1	differential viability (reversal)	%	-7.74

Any idea what its differential viability (reversal) is? The molecule is O=C1NC(c2ccccc2)(C(F)(F)F)SC2=CCCCCN12 (stereo unspecified)
2.37

What does the data say about its differential viability (reversal)? Entry: `CCOC(=O)c1oc2ccccc2c1NC(=O)COC`
9.07

Which differential viability (reversal) is reported for this molecule? `O=C(Nc1cccc(C(F)(F)F)c1)c1cccnc1N1CCCC1`
-6.8

Given the molecule `CCOCCCNC(=O)CCNS(=O)(=O)c1ccc(C)cc1` , what is its reported differential viability (reversal)?
8.21

State the recorded differential viability (reversal) for this entry: `O=C(Nc1nnc(COc2ccc(F)cc2)s1)c1cccs1`
21.3

----------
experiment: HUVEC growth inhibition – cell-based, human, primary screen (AID 575); settings: HUVEC proliferation, CellTiter-Glo luminescence, 72 h; at 10 µM; stronger effect = lower value;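 also: 100% = median of untreated cell wells with 0.1% DMSO on each plate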
Lab note: cut-off is 90%. Strictly less in viability is 1 (yes). Exactly 90% or more is 0 (no).

Study these solved cases before continuing.
MOLECULE	CLASS_ASSIGNMENT
CCOC(=O)C1=C(C)NC(SC(C)=O)=NC1c1ccc(OC(C)=O)c(OC)c1 (stereo unspecified)	1 (yes)
CCN(Cc1ccccc1)C(c1ccncc1)c1nnnn1C(C)(C)C (stereo unspecified)	0 (no)

Dear reviewer, please state whether `COc1cc(-c2nnc(SCc3c(F)cccc3Cl)o2)cc(OC)c1OC` has viability strictly beneath 90%.
1 (yes)

Is it true that viability reported for `Cc1cc(N2CCC3(CC2)OCCO3)n2nc(C)c(-c3ccc(Cl)cc3)c2n1` is less than 90%?
1 (yes)

Input CCCCC(O)(C(NC=O)C(=O)OC)C(F)(F)F (stereo unspecified) ; condition: viability strictly below 90%. Does it hold?
0 (no)

----------
test: reversal of MRP1-mediated doxorubicin resistance, pilot screen, H69AR cells, doxorubicin co-treatment (AID 601); details: H69AR cells + 2 uM doxorubicin, CellTiter-Glo, 72 h; measured here: viability with 2 uM doxorubicin; at 10 µM; stronger effect = lower value
QUANTITY_KIND: viability
Field note: include the unit after the figure.

Item `CC(C)(C)n1nc2c(c1NC(=O)COc1ccc(Cl)cc1)CSC2` has what recorded viability?
102%

Param item = `N#Cc1c(/N=C/c2cccs2)sc2c1CCCCC2` ; retrieve measured viability.
73.9%

So what's the measured viability for this one? `Cc1ccccc1CNS(=O)(=O)c1ccc2c(c1)OCCO2`
92%

Entry under review: `Cc1ccc2[nH]cc(C(=O)CN3CCC4(CC3)OCCO4)c2c1` . Reported viability?
90.5%

Given `O=c1c2nnn(Cc3ccccc3)c2ncn1-c1ccccc1` , state its recorded viability.
103%

# lookup: viability of COCCNC(=O)C(c1ccc(C)o1)N(Cc1ccc(F)cc1)C(=O)Cn1nnc2ccccc21 (configuration not stated)
94.7%

I am curious: what viability value has been reported for `COc1cc(C)nc(NS(=O)(=O)c2ccc(C)cc2)n1` ?
86.2%

Look up viability for this molecule: O=C1CC(c2cccc(Cl)c2)CC(O)=C1C=NCCCO (configuration not stated)
98.1%

Consider the molecule shown here: `CCN1CCc2c(C#N)c(N3CCOCC3)nc(NCc3ccccc3)c2C1` What is its recorded viability?
77.8%

Item under review: Cc1ccc(Cl)cc1N1CCN(C(=O)C2CCCN(S(=O)(=O)c3cnc[nH]3)C2)CC1 (configuration not stated) . Reported viability?
78%

Given the entry `CCN(CC)c1ccc(-c2nn3c(-c4cccnc4)nnc3s2)cc1` , report its measured viability.
15.4%

Query: viability; subject: CCCCCOC(=O)C1=C(C)N(C)C(=O)NC1c1cc(Br)c(O)c(OC)c1 (configuration not stated)
86.5%

Name the recorded viability for `Cc1ccc(OCC(=O)NCCN2CCCC2)cc1` .
86.4%

Name the recorded viability for `CCc1nnc(NC(=O)CSc2nnc(-c3ccc(OC)cc3)n2C)s1` .
98.6%

Entry under review: `CCOC(=O)c1nnn(CC(=O)Nc2cccc(F)c2)c1C(=O)OCC` . Reported viability?
92.4%

So what's the measured viability for this one? `CCC(=O)Nc1c(C#N)c2nc3ccccc3nc2n1-c1ccccc1C`
91%

Endpoint output: viability of `CCN(c1ccc(OC)cc1)S(=O)(=O)c1ccc2c(c1)CCN2C(=O)CCC(=O)O` . Value?
90%

Give its viability value. Item: `COCCNC(=O)c1ccc2c(c1)nc(C)n2-c1cccc(F)c1`
90.6%

# get_value(readout='viability', item= CC1=C(C(=O)NCc2ccco2)C2(CCC(C)CC2)OC1=O (configuration not stated) )
84.8%

Which measured viability value corresponds to `COc1ccccc1Oc1coc2c(CN3CCN(C)CC3)c(O)ccc2c1=O` ?
84.7%

Can you share its viability? I mean this molecule: `Cc1c(Cl)cccc1N1C(=O)c2ccccc2C1=O`
108%

What value of measured viability is listed for `COc1ccc(CNC(=O)c2cc(-c3ccc(OC)c(OC)c3)on2)cc1` ?
85.6%

Query: viability; subject: `CSc1nnc2c3ccccc3n(CCc3ccccc3)c2n1`
86.1%

Give the measured viability of `CCCCn1nnnc1SCC(=O)N1CCN(C(=O)c2ccco2)CC1` .
86.3%

// viability lookup, key: CC(C(=O)N1CCc2ccccc21)N1CCc2ccccc2C1 (configuration not stated)
102%

Return reported viability; argument: O=C1N(c2ccccc2)C2CS(=O)(=O)CC2N1c1ccc(Br)cc1 (configuration not stated)
83.2%

Quick one: viability of `O=C(Nc1ccc(CN2CCCCC2)cc1)c1ccc2c(c1)OCO2` ?
79.7%
